Examples of compounds with documented growth follow.
Test system: HS 578T breast
Experiment description: NCI-60 one-dose screen, 48 h (100 = growth as untreated, 0 = no growth, -100 = all killed)
Condition: 10 µM unless noted
The panel holds about 83,000 compounds, 20% with a hit somewhere; the sample as a whole holds those more often.
Measurement type: growth (%)

CCSc1oc(-c2ccccc2)nc1[P+](c1ccccc1)(c1ccccc1)c1ccccc1 = 18.4
CCO/C=N/C1=C(C#N)C(c2ccc(Cl)cc2)c2sc3c(F)cccc3c2O1 (stereo not given) = 55.6
CCc1ccc(CCCC(=O)O)cc1 = 101
CN(C)CC1CCC(CN(C)C)C1=O (stereo not given) = 105
COC(=O)c1c(C)c2n(c1C)C(=O)C(c1ccccc1)=C2 = 103
CC1CCN(CCOc2ccc(CNc3ccc4nc(CCC5CCCCC5)[nH]c4c3)cc2)CC1 = 27.5
c1cnc2c(-c3nc4ccc5[nH]ncc5c4c4c3CCCC4)c[nH]c2c1 = 63.4
NC(=O)c1cc(I)ccc1NC(=O)/C=C/c1ccccc1 = -12.8
COc1cc(-c2cncn2-c2ccc(-c3nc4ccc(F)cc4s3)cc2)ccc1F = 97.4
COc1cccc(/C=C2\COc3ccc(O)c(O)c3C2=O)c1 = 20.4

====

Tested on: MCF7 breast
Experiment description: NCI-60 one-dose screen, 48 h (100 = growth as untreated, 0 = no growth, -100 = all killed)
Condition: 10 µM unless noted
Compounds without any hit were thinned out: in the full panel of roughly 83,000, 20% have a hit.
Param label: returns Met when growth < 80%, returns Not met otherwise, including exact equality.

Cc1ccc(CNc2ccc3nc(CCC4CCCCC4)[nH]c3c2)cc1 = Met
CC(C)(Sc1cc(C(C)(C)C)c(OC(=O)CCCC(=O)O)c(C(C)(C)C)c1)Sc1cc(C(C)(C)C)c(OC(=O)CCCC(=O)O)c(C(C)(C)C)c1 = Met
O=C1/C=C/[C@@H](O)[C@@H]2C[C@@H](O)C[C@H]2/C=C/CCC[C@H](CCc2ccccc2)O1 = Met
O=C(CSc1nnc(-c2cnccn2)n1-c1ccccc1)c1ccc(Cl)cc1 = Not met
CCOC(=O)C(=O)C(C(=O)OCC)c1ccccc1 (centres undefined) = Not met
N#Cc1c(-c2ccc(Cl)cc2)nc(NN2C(=O)c3ccccc3C2=O)nc1N1CCOCC1 = Not met
O=C1NC2(Nc3ccccc31)C(=O)Nc1c(Cl)cc(Cl)cc12 (centres undefined) = Not met
CCOC(=O)c1cc2c(n1C)-c1nc(NC(C)=O)sc1CCC2 = Met

====

Parameter growth: see the listing below.
Test system: NCI-H522 lung
Experiment description: NCI-60 one-dose screen, 48 h (100 = growth as untreated, 0 = no growth, -100 = all killed)
Condition: 10 µM unless noted
Compounds without any hit were thinned out: in the full panel of roughly 83,000, 20% have a hit.
Measurement type: growth (%)

COc1cc(/C=C/C(=O)c2ccc(F)cc2)ccc1OCCCCOc1ccc(/C=C/C(=O)c2c(C)nc3ccccc3c2C)cc1OC = 59.1
C=C1C(=O)O[C@H]2[C@H]1CC/C(COC(=O)/C=C\C(=O)NCc1ccc(Cn3c(=O)sn(CCI)c3=O)cc1)=C\CC[C@@]1(C)O[C@@H]21 = -84
COc1ccc2c(c1)CC[C@H](O)/C2=C/c1cc(OC)c(OC)c(OC)c1 = -19.2
Cc1ccc(NC(=O)c2sc3nc(C)c(Br)c(C)c3c2N)cc1 = 71.9

====

Tested on: RXF 393 renal
Experiment description: NCI-60 one-dose screen, 48 h (100 = growth as untreated, 0 = no growth, -100 = all killed)
Condition: 10 µM unless noted
The panel holds about 83,000 compounds, 20% with a hit somewhere; the sample as a whole holds those more often.
Known growth of a selection of compounds
Measurement type: growth (%)

CC(O)(c1ccccc1)C(c1ccccc1)C1CCCCN1 (centres undefined) = 106
CC1=C2[C@@H](CC1)[C@]1(C)O[C@@](C(C)C)(C[C@H]1OC(=O)[C@H](C)O)[C@H]2OC(=O)/C=C/c1ccccc1 = 30.8
COC12C=C/C(=C(/C(=O)OCc3ccncn3)C(=O)CCCCCCCCC3(OC)C=C/C(=C(/C(=O)OCc4ccncn4)C(=O)CCCCCCCC1)O3)O2 = -77.3
COc1cc2c(c(OC)c1OC)CCC(c1cccc(C(=O)Nc3ccc(C#N)cc3)c1)O2 (centres undefined) = 78.8
COc1ccc(NC(=O)c2sc3nc(C)c(C(=O)/C=C/c4ccccc4)cc3c2N)cc1 = -1.08
COc1cc2nc3cc([N+](=O)[O-])ccc3c(NCCNCC(C)O)c2cc1OC (centres undefined) = -56
CC1CN(S(=O)(=O)c2oc(-c3ccc(Cl)cc3)nc2C#N)CC(C)O1 (centres undefined) = 40.3
Oc1c(I)cc(I)cc1CNCCN(Cc1ccccn1)Cc1ccccn1 = -85.5
O=[N+]([O-])c1ccc(O)cc1Br = 107

====

Test system: BT-549 breast
Experiment description: NCI-60 one-dose screen, 48 h
Condition: 10 µM unless noted
This is part of a sample that, as a whole, favours compounds with a hit. Of some 83,000 tested, about 20% had one in any assay. The source made the active and inactive calls. The calls were made as follows: active = growth percent below 10; inactive = the rest.
Labels: active, inactive

O=S(=O)(NCCNc1nccc(-c2c(-c3ccc(F)c(O)c3)nc3occn23)n1)c1ccc(Cl)cc1 = inactive
O=C(/C=C/c1cn(-c2ccccc2)nc1-c1ccc(Cl)cc1)c1ccc(F)cc1 = inactive
CCCCCCCCCCCCCCCCCCOc1ccccc1CC(=O)OCC[N+](C)(C)C = inactive
Cc1cn(-c2cc(NC(=O)c3cncc(C#Cc4cnc(N)c5ncccc45)c3)cc(C(F)(F)F)c2)cn1 = inactive
CN(C)Cc1ccc(O)c(C(=O)O)c1 = inactive
CCN(CC)c1ccc(\C=N/N=C(N)/C(N)=N\N=C/c2ccc(N(CC)CC)cc2)cc1 = inactive
CCn1c(SCC(=O)N/N=C(\C)c2ccc(Cl)cc2)nc2c1c(=O)n(C)c(=O)n2C = inactive
Nc1n[nH]c2cccc(C#Cc3cccc(NC(=O)c4cc(F)cc(C(F)(F)F)c4)c3)c12 = inactive
Cc1ccccc1/C=C/C(=O)c1cccc(OCCCCOc2cccc(C(=O)/C=C/c3ccccc3C)c2)c1 = inactive
CC1=NC2=Nn3c(c4cnn(-c5ccccc5)c4n/c3=N\N)NN2C(c2ccccc2)=C1 = inactive
COc1ccc(OC)c(-c2nc(SCC(=O)c3ccc(C#N)cc3)[nH]c(=O)c2C#N)c1 = inactive
CCOC(=O)C1=C(C)NC(=O)NC1c1c(Cl)n(CCCl)c2ccccc12 (stereo unspecified) = inactive
Cc1ccc(NC(=O)Cn2cc(CN3CCN(c4ccnc5cc(Cl)ccc45)CC3)nn2)cc1 = inactive
Clc1ccc(/C=N\N=C\c2ccc(Cl)c(Cl)c2)cc1Cl = inactive
COc1cc(-c2nc3sccn3c2-c2ccnc(NCCNS(=O)(=O)c3ccccc3)n2)ccc1F = inactive
O=C(c1ccncc1)N1N=C(c2ccc(Cl)cc2)C[C@H]1c1cn(-c2ccccc2)nc1-c1ccccc1 = inactive
O=C(Cn1cc(CSc2nc3ccccc3o2)nn1)Nc1ccc(F)cc1F = inactive
COc1ccc(/C=N/NC(=O)c2ccc(-n3cc(-c4ccccc4)nn3)cc2)cc1OC = inactive
COc1ccc(C/C(C)=C(\c2ccc(Cl)cc2)c2ccc(OCCN3CCCCC3)cc2)cc1 = inactive
O=C1Nc2ccc(C(=O)O)cc2/C1=N/c1nnc(Sc2ccccc2)s1 = inactive
Cc1nc2sc(C(=O)Nc3cccc4ccccc34)c(N)c2cc1C(O)c1ccccc1 (stereo unspecified) = inactive
Nc1nc(N)c(-c2ccc(Cl)c(Cl)c2)c(CBr)n1 = inactive
Nc1nc2ccccc2c2c(=O)c3cccc(Cl)c3sc12 = inactive
CCOC(=O)c1cc(C)n(-c2ccc(C(=O)O)cc2)c1C = inactive
CC(=O)c1c(C)nc(SCC(=O)Nc2cccc(O)c2)n1-c1ccc(Cl)cc1 = inactive
CCSc1oc(-c2ccccc2)nc1[P+](c1ccccc1)(c1ccccc1)c1ccccc1 = active
O=c1[nH]c(-c2ccccc2)nc2sc3cc(O)ccc3c12 = inactive
COC(=O)c1nc(-c2ccc(C)cc2)oc1S(=O)(=O)c1cccc(OC)c1 = inactive
COc1cc2ncnc(Nc3ccc(S(=O)(=O)Nc4cc(C)on4)cc3)c2cc1OCCCN1CCN(c2ccc(F)cc2)CC1 = inactive
CCOC(=O)[C@@H]1CSC(CC)=C(C(=O)O)N1 = inactive
O=C(CN1CCOCC1)Nc1nc(-c2cc3ccccc3oc2=O)cs1 = inactive
Cc1csc(Nc2nc(-c3ccccn3)nc(C(Cl)(Cl)Cl)n2)n1 = inactive
CS(=O)(=O)Nc1cc(-c2ccc3ncnc(Nc4ccc5c(cnn5Cc5ccc(F)cc5)c4)c3c2)cnc1Cl = active
Cc1ccc(C(=O)c2ccc(CC(=O)N/N=C/c3ccccc3O)n2C)cc1 = inactive
O=C(Nc1ccc(Oc2cccc(F)c2)c(Cl)c1)c1cccnc1 = inactive
O=C(c1ccccc1)c1ccc(C2CCCCC2)cc1 = inactive
CC(C)Cn1cnc2c(=O)[nH]c(N)nc21 = inactive
Fc1cc2c(cc1Cl)N(c1ncnc3ccc(-c4ccc5n[nH]nc5c4)cc13)CC2 = inactive
C=CCN=c1sc2c(n1NC(=O)c1cc3ccc1CCc1ccc(cc1)CC3)C(=O)c1ccccc1C2=O = active
O=C1/C(=C/c2ccc([N+](=O)[O-])cc2)COc2ccc(O)cc21 = inactive
COc1cc2cc(NCc3cccc(Cl)c3)nc(C)c2cc1OC = inactive
